Just for reference, the supplement of paper PMC10567573 is where these values come from.

B1: MMP1 (parent)
chain: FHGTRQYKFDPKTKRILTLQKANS

variants of: B1; test: protein stability index of a GFP-peptide fusion (GPS, HEK-293T) (PSI 1-6); higher = more stable; settings: c terminus: a fixed tail appended;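 note: lentivirally expressed fusions sorted by FACS into six bins by GFP to DsRed ratio, PSI derived from sequencing read proportions per bin multiplied by bin number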
# binarize protein stability index: threshold 2 inclusive, high side 1, low side 0

FHGTRQYCFDPKTKRILTLQKANS [K8C]: 1
FHGPRQYKFDPKTKRILTLQKANS [T4P]: 0
FHGTRQYKFAPKTKRILTLQKANS [D10A]: 0
FHHTRQYKFDPKTKRILTLQKANS [G3H]: 1
FHGTRQYKFDPKTKRILTLRKANS [Q20R]: 1
FHGTRQYKFDPKTKRILTLQKANT [S24T]: 0
FHGTRQYKFDPKTKRILTLQKAND [S24D]: 0
FHGTRQYKFDPKTKRILTFQKANS [L19F]: 0
FHGTRQYKFDPKTKRILTLFKANS [Q20F]: 0
FHGTRQYKFDPKTKRILFLQKANS [T18F]: 0
